All figures here come from PubChem BioAssay (NCI).

Tested on: MDA-MB-468 breast
Assay: NCI-60 one-dose screen, 48 h (100 = growth as untreated, 0 = no growth, -100 = all killed)
Conditions: 10 µM unless noted
About 83,000 compounds went through this panel and 20% of them were active in at least one assay; those are over-represented in the sample as a whole.
endpoint.label: growth (%)
Could you give me the number in %? Just the number is fine.

Give growth for COc1cc(C2CC(=O)Nc3c2cc(Br)c2ccccc32)cc(Br)c1OC (stereo not given) tested on MDA-MB-468 breast.
3.67

Provide growth, recorded with MDA-MB-468 breast, of CN(C)c1ccc(N2Cc3ccccc3OC3=C2C(=O)c2c(O)ccc(O)c2C3=O)cn1
-59.4

Please tell me the measured growth for O=C(c1ccccc1)c1cc2ccccc2oc1=O ; system: MDA-MB-468 breast.
97.3

Fill: growth (MDA-MB-468 breast) for this molecule CC(=O)NC1C(O[C@H]2C[C@H]3[C@@H]4CC=C5C[C@@H](O)CC[C@]5(C)[C@H]4CC[C@]3(C)[C@H]2[C@H](C)C(=O)CCC(C)C)OCC(O)C1O (stereo not given in full)
51.6

// fetch growth; item: O=C(CCl)N1c2ccccc2Sc2ccc3ccccc3c21 ; system: MDA-MB-468 breast
-76.1
